Cited source: BigSolDB 2.1

conditions: in isopropanol, 318.15 K
Measurement type: solubility (mole fraction)

In [3]: df
Out[3]:
                           line_notation            measurement_type  assay_value
0  CC(C)N1C(=O)N(c2ccccc2)CSC1=NC(C)(C)C  solubility (mole fraction)       0.0454

###

details: in ethanol, 283.15 K
Measurement type: solubility (mole fraction)

                           line_notation            measurement_type  assay_value
0  CC(C)N1C(=O)N(c2ccccc2)CSC1=NC(C)(C)C  solubility (mole fraction)      0.00917

###

conditions: in isopropanol, 293.15 K
Measurement type: solubility (mole fraction)

>>> df
                           line_notation  assay_value
0  CC(C)N1C(=O)N(c2ccccc2)CSC1=NC(C)(C)C       0.0165
